Values from the supplement of paper PMC7125110

B1: glmS ribozyme (parent)
chain: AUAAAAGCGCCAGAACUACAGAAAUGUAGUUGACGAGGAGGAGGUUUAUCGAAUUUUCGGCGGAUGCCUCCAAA

Variants of: B1
Test: KM; higher = weaker cofactor use; RNA array
Conditions: with glucosamine-6-phosphate
measured endpoint: KM (µM)
Record the value in µM, omitting the unit from your answer.

As a guide, the following entries are already answered.
AUAAAAGCGCCAGGACUACAGAAAUGUAGUUGACGAGGAGGAGGUUUAUCGAAUUUUCGGCGGAUGCGUCCAAA :: 590
AUAAAAGCGCCAUAACUACAGAAAUGUAGUUGACGAGGAGGAGGUUCAUCGAAUUUUCGGCGGAUGCCUCCAAA :: 1030
AUAAAAGCGCCAGAACUACAGAAAUGUAGUUGACGAGGAGGAGGUUUAUCGAAAUAUCGGCGGAUGCCUCCAAA :: 2140
AUAAAAGCGCCAGAACUACAGAAAUGUAGUUGACGAGGAGGAGGUUUAUCGAAUUUUCGGCGGAUCUCUCCAAA :: 1800
AUAAAAGCGCCAGAACUACAGAAAUGUAGUUGACGAGGAGGAGGUUUAUCGAAUUUUCGGCGGAUGCCUCGAAA :: 1460
AUAAAAGCGCCAGCACUACAGAAAUGUAGUUGACGAGGAGGAGGUGUAUCGAAUUUUCGGCGGAUGCCUCCAAA :: 1630

Consider now this further variant.
Reported KM of "AUAAAAGCGCCAGAACUACAGAAAUGUAGUUGACGAGGUGGAGCUUUAUCGAAUUUUCGGCGGAUGCCUCCAAA" : 1920
